Biological target: T1, orthogonal hCD122 receptor (hoRb), hCD122 with H133D and Y134F (human, UniProt P14784 27-550)
T1 sequence: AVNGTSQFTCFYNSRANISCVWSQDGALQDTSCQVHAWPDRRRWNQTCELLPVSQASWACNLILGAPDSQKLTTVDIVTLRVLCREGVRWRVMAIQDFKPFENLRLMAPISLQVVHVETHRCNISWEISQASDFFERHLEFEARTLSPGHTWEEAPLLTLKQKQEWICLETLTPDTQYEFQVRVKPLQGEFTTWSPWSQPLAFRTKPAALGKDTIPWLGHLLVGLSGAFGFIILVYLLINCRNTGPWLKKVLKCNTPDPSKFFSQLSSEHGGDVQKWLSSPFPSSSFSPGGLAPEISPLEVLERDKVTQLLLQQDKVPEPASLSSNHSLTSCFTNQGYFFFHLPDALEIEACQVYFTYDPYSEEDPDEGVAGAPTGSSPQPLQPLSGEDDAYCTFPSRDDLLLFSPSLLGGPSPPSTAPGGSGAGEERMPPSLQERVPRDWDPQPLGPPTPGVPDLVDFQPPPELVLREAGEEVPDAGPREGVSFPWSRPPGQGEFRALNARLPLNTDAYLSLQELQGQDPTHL
Assay: cell-based or functional assay
QUANTITY_MEASURED: Relative Proliferation Fold Change NKL 1:2 (fold)

Use the examples below as a reference point.
| BINDER | OBSERVED |
| --- | --- |
| L14W, SQVLKA (ligand) APTSSSTKKTQLQWSQLLVLLKAILNGINNYKNPKLTRMLTFKFYMPKKATELKHLQCLEEELKPLEEVLNLAQSKNFHLRPRDLISNINVIVLELKGSETTFMCEYADETATIVEFLNRWITFCQSIISTLT | 4.04 |
| C125S, SQVLKA (ligand) APTSSSTKKTQLQLSQLLVLLKAILNGINNYKNPKLTRMLTFKFYMPKKATELKHLQCLEEELKPLEEVLNLAQSKNFHLRPRDLISNINVIVLELKGSETTFMCEYADETATIVEFLNRWITFSQSIISTLT | 4.29 |
| L18T, SQVLKA (ligand) APTSSSTKKTQLQLSQLTVLLKAILNGINNYKNPKLTRMLTFKFYMPKKATELKHLQCLEEELKPLEEVLNLAQSKNFHLRPRDLISNINVIVLELKGSETTFMCEYADETATIVEFLNRWITFCQSIISTLT | 2.37 |
| Q126T, SQVLKA (ligand) APTSSSTKKTQLQLSQLLVLLKAILNGINNYKNPKLTRMLTFKFYMPKKATELKHLQCLEEELKPLEEVLNLAQSKNFHLRPRDLISNINVIVLELKGSETTFMCEYADETATIVEFLNRWITFCTSIISTLT | 0.44 |
| T51I, SQVLKA (ligand) APTSSSTKKTQLQLSQLLVLLKAILNGINNYKNPKLTRMLTFKFYMPKKAIELKHLQCLEEELKPLEEVLNLAQSKNFHLRPRDLISNINVIVLELKGSETTFMCEYADETATIVEFLNRWITFCQSIISTLT | 3.57 |

P = V91R, SQVLKA (ligand) APTSSSTKKTQLQLSQLLVLLKAILNGINNYKNPKLTRMLTFKFYMPKKATELKHLQCLEEELKPLEEVLNLAQSKNFHLRPRDLISNINRIVLELKGSETTFMCEYADETATIVEFLNRWITFCQSIISTLT
Q = ΔL14, SQVLKA (ligand) APTSSSTKKTQLQSQLLVLLKAILNGINNYKNPKLTRMLTFKFYMPKKATELKHLQCLEEELKPLEEVLNLAQSKNFHLRPRDLISNINVIVLELKGSETTFMCEYADETATIVEFLNRWITFCQSIISTLT
Between the entries labeled P and Q , whose measured Relative Proliferation Fold Change NKL 1:2 is lower? Give the chosen item's label as your response.
P
(P: 0.86 fold, Q: 2.38 fold)
